Measured values drawn from PubChem BioAssay (NCI) for this set.

system: SR leukemia; assay: NCI-60 one-dose screen, 48 h; conditions: 10 µM unless noted
Compounds without any hit were thinned out: in the full panel of roughly 83,000, 20% have a hit. Active and inactive are the calls of the source. How the source made its calls: active means growth percent below 10; inactive means the rest.
Pick one and only one: true (active), false (inactive)

Known results for molecules:
>  <molecule>
Oc1ccc(CCC2CCCC(CCc3ccc(OCCF)cc3)N2)cc1 (stereo unspecified)

>  <label-value>
false

$$$$
>  <molecule>
Oc1cc(/C=C/c2nc(N3CCOCC3)c3cc(Cl)c(Cl)cc3n2)cc(O)c1O

>  <label-value>
false

$$$$
>  <molecule>
COc1ccc2nc(-c3c(-c4ccccc4)nc4ncccn34)[nH]c2c1

>  <label-value>
false

$$$$
>  <molecule>
Nc1c(C(=O)Nc2cccc(Cl)c2)sc2ncc(Cl)cc12

>  <label-value>
false

$$$$
>  <molecule>
N#CC1=C(N)Oc2c(c(N)nn2-c2ccccc2)C1c1ccc(Cl)cc1 (stereo unspecified)

>  <label-value>
false

$$$$

Okay, next one:
Task: Record request — test call for COc1ccc2c(c1)c(-c1nc(-c3cn(C)c4ncccc34)cs1)cn2CCN
Output: false

----------
tested on: BT-549 breast; assay: NCI-60 one-dose screen, 48 h (100 = growth as untreated, 0 = no growth, -100 = all killed); settings: 10 µM unless noted
Compounds without any hit were thinned out: in the full panel of roughly 83,000, 20% have a hit.
Entries and their measured growth follow.
Just the number in %, nothing appended.

>  <item-smiles>
COc1ccc(OC)c(-c2c(C#N)c(-c3ccco3)nc3c2c(-c2ccccc2)nn3-c2ccccc2)c1

>  <assayed-system>
BT-549 breast

>  <experimental-endpoint>
growth

>  <unit-abbreviation>
%

>  <readout-number>
108

$$$$
>  <item-smiles>
Fc1ccc2nc(-c3cc(-c4ccc5c(c4)OCO5)n[nH]3)[nH]c2c1

>  <assayed-system>
BT-549 breast

>  <experimental-endpoint>
growth

>  <unit-abbreviation>
%

>  <readout-number>
27.5

$$$$
>  <item-smiles>
O=S(=O)(NCCNc1cc(-c2cn(-c3ccccc3)nc2-c2cccc(O)c2)ccn1)c1ccc(Br)cc1

>  <assayed-system>
BT-549 breast

>  <experimental-endpoint>
growth

>  <unit-abbreviation>
%

>  <readout-number>
45.6

$$$$
>  <item-smiles>
O=S(=O)(NCCNc1cc(-c2cn(-c3ccccc3)nc2-c2cccc(O)c2)ccn1)c1ccc(Cl)cc1

>  <assayed-system>
BT-549 breast

>  <experimental-endpoint>
growth

>  <unit-abbreviation>
%

>  <readout-number>
50.7

$$$$

Task: Requested read-out: growth. Entry: CCCCn1c(-c2ccc(O)cc2)cn2c3c(=O)[nH]c(=O)n(C)c3nc12
Output: 76.5

----------
tested on: SN12C renal; experiment: NCI-60 one-dose screen, 48 h (100 = growth as untreated, 0 = no growth, -100 = all killed); conditions: 10 µM unless noted
About 83,000 compounds went through this panel and 20% of them were active in at least one assay; those are over-represented in the sample as a whole.
experimental-endpoint: growth (%)
Just the number in %, nothing appended.

Answered cases to consult:
>  <compound>
Cc1c(C)c2c(c(C)c1NC(=O)CCCCCCC(=O)O)CCC(C)(CCCC(C)CCCC(C)CCCC(C)C)O2 (centres undefined)

>  <readout-number>
77.5

$$$$
>  <compound>
Oc1cc(/C=C/c2nc(N3CCOCC3)c3cc(Cl)c(Cl)cc3n2)cc(O)c1O

>  <readout-number>
104

$$$$

Task: Requested read-out: growth. Entry: CCN1CCN(C(=O)[C@]23CCC(C)(C)C[C@@H]2C2=CC[C@@H]4[C@@]5(C)C/C(=C/c6cccnc6)C(=O)C(C)(C)[C@@H]5CC[C@@]4(C)[C@]2(C)CC3)CC1
Output: 29.5

Task: What would you report for N#C/C(=C\c1ccc(-c2ccc(Br)cc2)o1)c1nc(-c2cccs2)cs1 ?
Output: 94.5
